System: Escherichia coli TOP10
Assay: shrunken log2 fold change of peptide-encoding DNA abundance (4.5 h post-induction vs induction); higher = less antimicrobial activity (less host growth inhibition)
Details: time post-induction: 4.5 h; library: site-saturation at positions 5, 18, 19, 20

| SEQUENCE TEXT | shrunken log2 fold change |
| --- | --- |
| RRIRGRPPRLPRPRPRPSGHPRP | -0.202 |
| RRIRWRPPRLPRPRPRPWRMPRP | -0.182 |
| RRIRARPPRLPRPRPRPIEYPRP | -0.267 |
| RRIRDRPPRLPRPRPRPWNFPRP | 0.0173 |
| RRIRCRPPRLPRPRPRPMGTPRP | -0.159 |
| RRIRLRPPRLPRPRPRPSRNPRP | -0.0105 |
| RRIRDRPPRLPRPRPRPVCNPRP | 0.861 |
| RRIRHRPPRLPRPRPRPDVTPRP | -0.0437 |
| RRIRGRPPRLPRPRPRPMFGPRP | 0.39 |

---

System: Escherichia coli TOP10;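 also: peptides expressed intracellularly from a pBAD plasmid library in pooled LB shake-flask culture, induced with 0.3% L-arabinose, DNA abundance read by NGS, three biological replicates, DESeq2 with apeglm shrinkage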
Experiment: shrunken log2 fold change of peptide-encoding DNA abundance (4.5 h post-induction vs induction); higher = less antimicrobial activity (less host growth inhibition)
Settings: time post-induction: 4.5 h; library: site-saturation at positions 5, 18, 19, 20
Quick rule for you: shrunken log2 fold change at -0.1 or higher means fulfilled, lower means not fulfilled.

| SEQUENCE TEXT | ANSWER LABEL |
| --- | --- |
| RRIRPRPPRLPRPRPRPLHSPRP | not fulfilled |
| RRIRGRPPRLPRPRPRPHTHPRP | fulfilled |
| RRIRRRPPRLPRPRPRPRGNPRP | fulfilled |
| RRIRARPPRLPRPRPRPCFSPRP | not fulfilled |
| RRIRMRPPRLPRPRPRPYLGPRP | not fulfilled |
| RRIRIRPPRLPRPRPRPEVYPRP | fulfilled |
| RRIRKRPPRLPRPRPRPSHFPRP | fulfilled |
| RRIRPRPPRLPRPRPRPCPEPRP | not fulfilled |
| RRIRQRPPRLPRPRPRPGQYPRP | not fulfilled |
| RRIRARPPRLPRPRPRPQLWPRP | fulfilled |
| RRIRKRPPRLPRPRPRPSQPPRP | fulfilled |
| RRIRIRPPRLPRPRPRPDGHPRP | not fulfilled |
| RRIRARPPRLPRPRPRPWFGPRP | fulfilled |
| RRIRQRPPRLPRPRPRPWVGPRP | fulfilled |
| RRIRHRPPRLPRPRPRPTDFPRP | fulfilled |
| RRIRPRPPRLPRPRPRPWSGPRP | fulfilled |
| RRIRKRPPRLPRPRPRPYLQPRP | not fulfilled |
| RRIRLRPPRLPRPRPRPTHPPRP | fulfilled |
| RRIRCRPPRLPRPRPRPLIKPRP | not fulfilled |
| RRIRDRPPRLPRPRPRPVSWPRP | fulfilled |
| RRIRMRPPRLPRPRPRPGRAPRP | fulfilled |
| RRIRQRPPRLPRPRPRPKRKPRP | fulfilled |
| RRIRARPPRLPRPRPRPLQCPRP | fulfilled |
| RRIRQRPPRLPRPRPRPPDMPRP | not fulfilled |
| RRIRDRPPRLPRPRPRPQDDPRP | fulfilled |
| RRIRQRPPRLPRPRPRPCKNPRP | not fulfilled |
| RRIRKRPPRLPRPRPRPDPSPRP | fulfilled |
| RRIRYRPPRLPRPRPRPAPRPRP | fulfilled |
| RRIRRRPPRLPRPRPRPRPQPRP | fulfilled |
| RRIRTRPPRLPRPRPRPFQAPRP | fulfilled |
| RRIRNRPPRLPRPRPRPCPDPRP | fulfilled |
| RRIRPRPPRLPRPRPRPFQIPRP | not fulfilled |
| RRIRPRPPRLPRPRPRPKCYPRP | not fulfilled |
| RRIRCRPPRLPRPRPRPGYDPRP | not fulfilled |
| RRIRDRPPRLPRPRPRPLDHPRP | fulfilled |
| RRIRTRPPRLPRPRPRPCPLPRP | not fulfilled |
| RRIRPRPPRLPRPRPRPFFFPRP | fulfilled |
| RRIRFRPPRLPRPRPRPDWVPRP | fulfilled |
| RRIRERPPRLPRPRPRPGKPPRP | fulfilled |
| RRIRHRPPRLPRPRPRPQFSPRP | not fulfilled |
| RRIRCRPPRLPRPRPRPYSVPRP | fulfilled |
| RRIRTRPPRLPRPRPRPLDLPRP | fulfilled |
| RRIRYRPPRLPRPRPRPAIPPRP | not fulfilled |
| RRIRVRPPRLPRPRPRPFRIPRP | not fulfilled |
| RRIRHRPPRLPRPRPRPDKHPRP | not fulfilled |
| RRIRPRPPRLPRPRPRPRYLPRP | not fulfilled |
| RRIRIRPPRLPRPRPRPCGQPRP | not fulfilled |
| RRIRFRPPRLPRPRPRPWENPRP | fulfilled |
| RRIRGRPPRLPRPRPRPYAYPRP | fulfilled |
| RRIRTRPPRLPRPRPRPVWVPRP | fulfilled |
| RRIRERPPRLPRPRPRPVDAPRP | not fulfilled |
| RRIRRRPPRLPRPRPRPMKLPRP | not fulfilled |
